Measured IC50 of individual entries
# STUDY SYSTEM: Perilipin-5 (Homo sapiens) + 1-acylglycerol-3-phosphate O-acyltransferase ABHD5 (Homo sapiens) (UniProt Q00G26+Q8WTS1)
# Sequence (Q00G26 whole entry, looked up, the tested form may be a part): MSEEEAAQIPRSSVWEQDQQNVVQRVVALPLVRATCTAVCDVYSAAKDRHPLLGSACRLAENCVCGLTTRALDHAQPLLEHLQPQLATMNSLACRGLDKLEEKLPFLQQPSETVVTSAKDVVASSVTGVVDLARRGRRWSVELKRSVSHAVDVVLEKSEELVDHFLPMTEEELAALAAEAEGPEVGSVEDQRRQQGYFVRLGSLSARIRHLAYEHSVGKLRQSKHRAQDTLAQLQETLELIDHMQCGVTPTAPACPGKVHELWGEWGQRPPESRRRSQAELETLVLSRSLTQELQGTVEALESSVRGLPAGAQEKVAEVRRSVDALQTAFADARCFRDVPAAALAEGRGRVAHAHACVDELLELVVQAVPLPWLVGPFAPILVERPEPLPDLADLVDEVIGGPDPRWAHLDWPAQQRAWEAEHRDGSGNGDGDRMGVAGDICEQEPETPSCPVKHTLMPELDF
# Sequence (Q8WTS1 whole entry, looked up, the tested form may be a part): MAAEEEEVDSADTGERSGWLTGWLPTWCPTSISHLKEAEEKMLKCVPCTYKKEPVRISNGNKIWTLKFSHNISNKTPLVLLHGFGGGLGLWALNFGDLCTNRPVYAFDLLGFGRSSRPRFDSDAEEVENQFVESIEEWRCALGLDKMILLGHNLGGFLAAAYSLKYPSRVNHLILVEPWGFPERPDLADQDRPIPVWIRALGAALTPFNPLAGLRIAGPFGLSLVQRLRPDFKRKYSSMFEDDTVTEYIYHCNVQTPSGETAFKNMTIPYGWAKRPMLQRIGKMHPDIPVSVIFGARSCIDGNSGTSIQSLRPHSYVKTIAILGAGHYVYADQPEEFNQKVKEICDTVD
# ASSAY EXPLANATION: blockers of ABHD5 binding to perilipin-5 – cell lysate, luminescence, proteins expressed in HEK293T, dose response (AID 651733);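 note: split Gaussia princeps luciferase complementation between ABHD5 and MLDP fusion proteins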
# RECORDED CONDITIONS: ABHD5-PLIN5 interaction

- COMPOUND: "O=C1CC(c2ccc(Cl)cc2)Oc2ccc(Cl)cc21 (centres undefined)"
  IC50: "3.18 µM"
- COMPOUND: "COc1ccc(NC(=O)C(c2ccnc3ccccc23)n2c(=O)c(-c3ccco3)nc3ccccc32)cc1 (centres undefined)"
  IC50: "7.88 µM"
- COMPOUND: "COc1cc2c(cc1OC)C(C)N(CCc1ccc(Cl)cc1)CC2 (centres undefined)"
  IC50: "5.37 µM"
- COMPOUND: "O=c1nc(/C=C/c2ccc(Cl)cc2Cl)cc(C(F)(F)F)[nH]1"
  IC50: "2.98 µM"
- COMPOUND: "O=c1[nH]c(C2CCN(S(=O)(=O)c3ccc(F)cc3)CC2)nc2c1nnn2Cc1ccc2c(c1)OCCO2"
  IC50: "8.33 µM"
- COMPOUND: "Cc1ccc(S(=O)(=O)N2C[C@H]3n4c(=O)ccc(=O)n4C[C@H](OC(=O)Nc4cccs4)[C@@]3(O)C2)cc1"
  IC50: "8.68 µM"
- COMPOUND: "O=C1NC(=S)NC(=O)C12C(c1ccccc1)NC(=S)NC2c1ccccc1 (centres undefined)"
  IC50: "3.88 µM"
- COMPOUND: "COc1ccc(C(C(=O)NC(C)(C)C)n2c(=O)c(-c3ccco3)nc3ccccc32)cc1 (centres undefined)"
  IC50: "3.52 µM"
